assay details: AUC in rat at 300 mg/kg, po administered as single dose by LC/MS/MS analysis
Assay type: ADME, organism-based
experimental parameters: in vivo
attribute measured: AUC (µM·h)
Only the number, expressed in µM·h, is required.

Input: So what does the record say about AUC for COc1ccc2c(c1)C(=O)N(C[C@@]1(c3cc4ncccc4o3)NC(=O)NC1=O)C2 ?
Output: 130

---

assay details: AUC in rat at 10 mg/kg, po by HPLC/MS analysis
Format: ADME, organism-based
experimental parameters: in vivo
attribute measured: AUC (µM·h)
Give the quantity in µM·h, number only.

Input: Quick check: AUC of COc1ccc2c(c1)C(=O)N(C[C@@]1(c3cc4ncccc4o3)NC(=O)NC1=O)C2 ?
Output: 8.6
